System: M14
Measurement Notes: NCI tumour cell line growth inhibition, 48 h
Active and inactive are the calls of the source. No stated cut-off is given here; in the data, active = GI50 up to about 1.1 µM and inactive = higher.
Listed molecules paired with reported GI50
Measured Quantity: GI50

Molecule: CC(=O)n1c2ccc(Br)cc2c2nc3ccccc3nc21
Measured Quantity: GI50
Recorded Value: > 100 µM (inactive)

Molecule: COc1ccc(/C=C2\CCc3ccccc3C2=O)cc1OC
Measured Quantity: GI50
Recorded Value: 22.4 µM (inactive)

Molecule: COc1ccc(/N=N/c2ccc3oc(=O)c(C(=O)Nc4ccccc4)cc3c2)cc1
Measured Quantity: GI50
Recorded Value: > 10 µM (inactive)

Molecule: COc1ccc(-c2ncn(C[Si](C)(C)C)c2-c2ccc(OC)cc2)cc1
Measured Quantity: GI50
Recorded Value: 3.59 µM (inactive)

Molecule: CCOC(=O)NC(=S)NC(C)c1ccccc1 (stereo not given)
Measured Quantity: GI50
Recorded Value: > 100 µM (inactive)

Molecule: O=P(CCOc1ccccc1OCCP(=O)(c1ccccc1)c1ccc2c(c1)OCCOCCOCCOCCO2)(c1ccccc1)c1ccc2c(c1)OCCOCCOCCOCCO2 (stereo not given)
Measured Quantity: GI50
Recorded Value: > 100 µM (inactive)

Molecule: CC1(C)CCCCC1/C=C/C(CC(O)(C(F)(F)F)C(F)(F)F)=N\Nc1ccc([N+](=O)[O-])cc1[N+](=O)[O-] (stereo not given)
Measured Quantity: GI50
Recorded Value: 4.33 µM (inactive)

Molecule: COC(=O)c1c(-c2cc(OC)c(OC)c(OC)c2)oc2ccccc2c1=O
Measured Quantity: GI50
Recorded Value: > 100 µM (inactive)

Molecule: CN(C)/C=N\c1cc[nH]c(=O)n1
Measured Quantity: GI50
Recorded Value: > 100 µM (inactive)

Molecule: COc1ccc(OCC(=O)O)c2c1CCC(C)C2=O (stereo not given)
Measured Quantity: GI50
Recorded Value: > 100 µM (inactive)

###

Tested on: SNB-19
Measurement Notes: NCI tumour cell line growth inhibition, 48 h
Calls of active or inactive are those of the source. Rule as the data show it: active = GI50 up to about 1.1 µM and inactive = higher.
Labels: True = active, False = inactive

Compound: CCOC(=O)N1C2C=C(C)C(ON2C(=O)c2ccccc2)C2C(C)C(=O)N21 (stereo not given)
Label Value: False
//
Compound: CC1=C(C)C(=O)O[C@@H]([C@](C)(O)[C@]2(O)CC[C@@]3(O)[C@@H]4C[C@H]5O[C@]56[C@@H](O)C=CC(=O)[C@]6(C)[C@H]4CC[C@]23C)C1
Label Value: False
//
Compound: Cc1cn(C2OC(CO[Si](C)(C)C(C)(C)C)C(N(C)O[Si](C)(C)C(C)(C)C)C2[Se]c2ccccc2)c(=O)[nH]c1=O (stereo not given)
Label Value: False
//
Compound: N=C(N)CCNC(=O)C1CCC(N)=N1 (stereo not given)
Label Value: False
//
Compound: CC(=O)OC(C)(C)C1CCC(C)(C(O)COc2ccc(CCNC(=O)c3ccccc3)cc2)O1 (stereo not given)
Label Value: False
//
Compound: O=[N+]([O-])c1cc([N+](=O)[O-])c(C(Cl)C(Cl)c2ccccc2)cc1C(Cl)C(Cl)c1ccccc1 (stereo not given)
Label Value: False
//
Compound: CN(Cc1cnc2nc(N)nc(N)c2n1)c1ccc(C(=O)N[C@@H](CCC(=O)O)C(=O)O)cc1 [METHOTREXATE]
Label Value: True
//
Compound: COc1cc(C2C(Cl)C(=O)N2NC(=O)c2ccc(N)cc2)ccc1O (stereo not given)
Label Value: False
//
Compound: N=C(N)Nc1ccc(-c2ccc(NC(=N)N)cc2)cc1
Label Value: False
//
Compound: CC(C)(C)C1=CC(CCC(=O)Nc2ccccc2[N+](=O)[O-])=NC(S)N1 (stereo not given)
Label Value: False
//
Compound: CN1C(=O)C(=O)N2c3ccc(Cl)cc3C3(c4ccccc4)N=CC12O3 (stereo not given)
Label Value: False
//
Compound: Cc1c(-c2nnc(-c3ccccc3)o2)c(=O)n(-c2ccccc2)n1C
Label Value: False
//
Compound: Cc1ccc2nc(-c3ccc(N4C(=O)C(Cl)C4c4ccc(Cl)cc4)cc3)sc2c1 (stereo not given)
Label Value: False
//
Compound: Cc1ccc(NC(=O)CC2C(=O)Nc3ccccc3S2(=O)=O)cc1C (stereo not given)
Label Value: False
//
Compound: c1ccc(C2CC(N3CCOCC3)=Nc3ccccc3N2)cc1 (stereo not given)
Label Value: False
//
Compound: c1cc(C2N3CCCN2CC3)ccn1 (stereo not given)
Label Value: False
//
Compound: Cc1cc(N)c(C)c2c1[nH]c1ccc(O)cc12
Label Value: False
//
Compound: CCN(CC)C(=S)Oc1cc2oc(=O)cc(C)c2cc1Cl
Label Value: False
//
Compound: CN(C)CN1C(=O)S/C(=C2\C(=O)N(CN(C)C)c3ccccc32)C1=O
Label Value: False
//
Compound: NS(=O)(=O)c1cc(S(N)(=O)=O)c(NC(=O)Nc2ccc(Cl)c(Cl)c2)c(Cl)c1Cl
Label Value: False
